Source of measurements: paper PMC10980035

- study system: Retriever complex (VPS35L, VPS26C, VPS29) (human, UniProt Q7Z3J2 1-963; O14972 1-297; Q9UBQ0-2 1-186)
- Sequence (Q7Z3J2 whole entry, chain 1 of 2): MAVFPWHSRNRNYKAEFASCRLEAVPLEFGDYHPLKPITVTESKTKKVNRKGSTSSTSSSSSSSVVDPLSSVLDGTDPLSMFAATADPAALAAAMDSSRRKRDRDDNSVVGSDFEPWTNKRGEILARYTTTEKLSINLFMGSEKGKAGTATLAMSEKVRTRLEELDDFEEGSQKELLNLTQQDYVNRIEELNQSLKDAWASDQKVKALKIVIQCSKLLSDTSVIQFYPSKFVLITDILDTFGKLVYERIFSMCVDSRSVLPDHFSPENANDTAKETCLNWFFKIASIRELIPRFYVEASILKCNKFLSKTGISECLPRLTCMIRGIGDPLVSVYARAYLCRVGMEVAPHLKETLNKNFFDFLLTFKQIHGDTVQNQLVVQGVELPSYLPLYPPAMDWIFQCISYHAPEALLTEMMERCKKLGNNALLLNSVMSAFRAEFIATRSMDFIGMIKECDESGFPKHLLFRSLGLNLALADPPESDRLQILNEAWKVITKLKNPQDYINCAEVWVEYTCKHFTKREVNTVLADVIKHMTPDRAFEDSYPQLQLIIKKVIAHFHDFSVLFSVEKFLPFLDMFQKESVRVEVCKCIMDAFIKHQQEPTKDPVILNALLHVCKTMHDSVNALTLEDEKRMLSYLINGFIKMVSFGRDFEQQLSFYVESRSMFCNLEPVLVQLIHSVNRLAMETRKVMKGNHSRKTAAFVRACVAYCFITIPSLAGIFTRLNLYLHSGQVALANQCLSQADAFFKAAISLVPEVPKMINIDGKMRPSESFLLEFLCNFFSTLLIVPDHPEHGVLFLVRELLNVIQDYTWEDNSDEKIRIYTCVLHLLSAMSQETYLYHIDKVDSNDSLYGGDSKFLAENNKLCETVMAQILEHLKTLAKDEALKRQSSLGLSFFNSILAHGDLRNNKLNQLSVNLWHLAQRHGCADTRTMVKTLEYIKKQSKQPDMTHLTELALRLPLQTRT
- Sequence (O14972 whole entry, chain 2 of 2): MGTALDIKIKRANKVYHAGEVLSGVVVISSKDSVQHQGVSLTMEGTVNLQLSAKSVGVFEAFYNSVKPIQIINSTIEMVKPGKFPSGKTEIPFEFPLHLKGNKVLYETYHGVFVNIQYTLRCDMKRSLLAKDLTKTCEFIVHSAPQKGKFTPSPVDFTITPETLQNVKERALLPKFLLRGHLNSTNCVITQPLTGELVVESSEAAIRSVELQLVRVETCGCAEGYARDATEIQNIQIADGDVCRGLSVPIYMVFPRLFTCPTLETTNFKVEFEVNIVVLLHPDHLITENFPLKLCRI
- procedure text: pull-down
property label: Kd

Which Kd value belongs to ASASDVHGNFAFEGIGDEDL [GST-SNX17 CT (GST-tagged tail peptide, last 20 residues of SNX17)] ?
~110 nM
